Origin of the recorded values: PubChem BioAssay (NCI)

# reported growth; entries follow
# Tested on: U251 CNS
# PROTOCOL: NCI-60 one-dose screen, 48 h (100 = growth as untreated, 0 = no growth, -100 = all killed)
# CONDITION DETAILS: 10 µM unless noted
About 83,000 compounds went through this panel and 20% of them were active in at least one assay; those are over-represented in the sample as a whole. Calls of active or inactive are those of the source. The calls were made as follows: active = growth percent below 10; inactive = the rest.

(Q) Please look at this compound and report its growth: CCc1ccc(C2=C/C(=C/c3ccc(Cl)cc3)C(=O)N2CCc2ccc(S(N)(=O)=O)cc2)cc1
(A) 25.1% (inactive)

(Q) State its growth: NCC(=O)NS(=O)(=O)OC[C@H]1O[C@@H](n2cnc3c(N)ncnc32)[C@H](O)[C@@H]1O
(A) -39.3% (active)

(Q) Identify growth associated with the compound O=C1C(Cl)=C(Nc2ccccc2)C(=O)C(Cl)=C1Nc1ccccc1
(A) 104% (inactive)

(Q) Return growth (reported value) for this compound: O=[N+]([O-])c1cccc(C(c2ccccc2)c2ccccc2)c1
(A) 90.9% (inactive)

(Q) Specify reported growth for the compound shown: CNCCCOc1c(Br)cc(CCNC(=O)/C(Cc2ccc(OC)c(Br)c2)=N/O)cc1Br
(A) 27.5% (inactive)

(Q) Please list growth recorded for the compound CC(/C=C/C=C(\C)[C@H](O)[C@H](C)C(=O)O[C@H]1C[C@H](C)C=C2C=C[C@@]3(C)O[C@@H](O)CC(=O)[C@]3(C)[C@H]21)=C\C=C\C(=O)O
(A) -3.9% (active)

(Q) Tell me growth reported for CCOC(=O)CSc1nnc(-c2cc3c([nH]c4ccccc43)c(-c3cccc(O)c3)n2)n1-c1ccc(C)cc1
(A) 54.9% (inactive)

(Q) // Input: O=c1nc(N2CCOCC2)oc2c(-c3cccc4ccccc34)cccc12 . Output its growth only.
(A) 85.8% (inactive)

(Q) Let me know recorded growth for Cc1cc[n+](CCCC[n+]2ccc(C)cc2)cc1 , thanks.
(A) 102% (inactive)

---

# Test system: SK-OV-3 ovarian
# PROTOCOL: NCI-60 one-dose screen, 48 h
# CONDITION DETAILS: 10 µM unless noted
About 83,000 compounds went through this panel and 20% of them were active in at least one assay; those are over-represented in the sample as a whole. The source made the active and inactive calls. The calls were made as follows: active = growth percent below 10; inactive = the rest.
Hi there, use one of these labels in your reply, thanks! active, inactive

(Q) Which outcome did this test record for the compound CNCCCOc1c(Br)cc(CCNC(=O)/C(Cc2ccc(OC)c(Br)c2)=N/O)cc1Br ?
(A) inactive

(Q) Fill in: this test's call for Fc1ccc(/C=N/n2c(-c3cc(Cl)cc(Cl)c3Cl)nn(CNc3ccc(Cl)nn3)c2=S)cc1 is ___
(A) inactive

(Q) Per the records of this test, what outcome belongs to Cc1c(Cl)ccc2c(C(=O)Cl)cc(-c3ccccc3)nc12 ?
(A) inactive

(Q) I'd appreciate the recorded outcome for Cc1nc(N)nc(SCc2ccccc2)c1Br from this test.
(A) inactive

(Q) Could you please tell me the result logged for O=C(Nc1cccc(-n2ccc3c(NC(=O)c4ccccc4)nccc32)c1)c1cc(N2CCOCC2)cc(C(F)(F)F)c1 in this assay?
(A) active

(Q) Recorded test outcome, item NC(N)=N/N=C/c1ccc([N+](=O)[O-])cc1
(A) inactive
